assay: inhibitors of TNFa-induced NFkB p65 translocation, primary screen, imaging, HUVEC, MLSMR starter and 10KST1 sets (AID 438); conditions: HUVEC TNFa-induced p65 nuclear translocation; measured here: nuclei count (cytotoxicity indicator), at 2.08 µM;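 note: compound added about 3h40 before a 20 min TNFalpha stimulation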
property: cell count

// worked examples, cell count included
- C=CCn1c(C)cc(C(=O)CSc2nc3ccccc3o2)c1C: 615
- COc1ccc(C2NC(=O)NC(O)(C(F)(F)F)C2C(=O)c2ccc(F)cc2)cc1 (stereo unspecified): 632
- COC(=O)c1ccc(-n2nnnc2SCc2nn[nH]n2)cc1: 543

Record request: cell count value, item COc1ccc(/C(O)=C2/C(=O)C(=O)N(CCCN(C)C)C2c2ccccc2)cc1Cl (stereo unspecified)
690

What about Cc1cc(C)cc(C(=O)N2CCC(C(N)=O)CC2)c1 ?
706

Repeat with CSc1ccccc1NC(=O)c1cnc2n(c1=O)CCS2
695

What would you report for C=CCOc1ccccc1/C=c1\sc2nc(=O)c(C)nn2c1=O ?
704

Okay, and Cc1ccc2c(C)nc(NC3=NCN(C(C)C)CN3)nc2c1 ?
604

Further, for Cn1ncc(N=Cc2c(O)ccc3ccccc23)c1C(=O)N1CCOCC1 ?
713

Could you do the same for CCCc1nnc(NC(=O)Nc2ccccc2OC)s1 , please?
618

Now this one: CC(=O)C1=C(C)NC(=O)NC1c1cccc(O)c1 (stereo unspecified)
454
